# target desc: EZH2 (Y641F) (Homo sapiens, UniProt Q15910, Y641F)
# Sequence (Q15910 whole entry Y641F): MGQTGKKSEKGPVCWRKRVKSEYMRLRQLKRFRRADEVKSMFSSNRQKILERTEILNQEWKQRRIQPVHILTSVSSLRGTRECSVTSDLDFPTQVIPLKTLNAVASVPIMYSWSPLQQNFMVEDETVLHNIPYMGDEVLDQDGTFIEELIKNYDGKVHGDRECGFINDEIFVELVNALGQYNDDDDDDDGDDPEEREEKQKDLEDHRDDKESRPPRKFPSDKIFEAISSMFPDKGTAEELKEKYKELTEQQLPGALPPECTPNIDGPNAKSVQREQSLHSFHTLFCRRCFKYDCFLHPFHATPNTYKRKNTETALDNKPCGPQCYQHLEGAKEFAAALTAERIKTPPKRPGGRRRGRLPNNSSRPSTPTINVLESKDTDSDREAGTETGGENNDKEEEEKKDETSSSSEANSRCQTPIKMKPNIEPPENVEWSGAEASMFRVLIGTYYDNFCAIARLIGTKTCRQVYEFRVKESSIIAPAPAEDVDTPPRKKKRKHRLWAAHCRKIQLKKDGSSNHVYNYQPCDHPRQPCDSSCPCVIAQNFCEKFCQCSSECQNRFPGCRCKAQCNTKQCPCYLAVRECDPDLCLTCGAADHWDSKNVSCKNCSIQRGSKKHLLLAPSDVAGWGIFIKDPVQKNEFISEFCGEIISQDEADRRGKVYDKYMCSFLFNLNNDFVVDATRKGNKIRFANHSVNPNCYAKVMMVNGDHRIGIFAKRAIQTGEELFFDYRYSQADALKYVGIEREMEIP
# Sequence (O75530 whole entry partner): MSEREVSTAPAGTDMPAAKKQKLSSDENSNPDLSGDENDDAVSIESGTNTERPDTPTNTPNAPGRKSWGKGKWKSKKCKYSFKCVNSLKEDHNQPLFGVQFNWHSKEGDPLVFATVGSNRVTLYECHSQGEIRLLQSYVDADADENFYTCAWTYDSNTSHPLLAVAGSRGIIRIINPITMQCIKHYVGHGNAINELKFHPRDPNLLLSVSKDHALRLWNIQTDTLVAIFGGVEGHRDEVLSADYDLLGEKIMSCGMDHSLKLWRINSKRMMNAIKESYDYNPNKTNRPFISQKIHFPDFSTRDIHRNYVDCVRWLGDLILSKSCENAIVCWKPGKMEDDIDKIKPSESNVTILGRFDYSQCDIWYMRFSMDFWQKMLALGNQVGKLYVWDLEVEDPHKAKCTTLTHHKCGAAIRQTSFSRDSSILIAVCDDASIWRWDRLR
# Sequence (Q15022 whole entry partner): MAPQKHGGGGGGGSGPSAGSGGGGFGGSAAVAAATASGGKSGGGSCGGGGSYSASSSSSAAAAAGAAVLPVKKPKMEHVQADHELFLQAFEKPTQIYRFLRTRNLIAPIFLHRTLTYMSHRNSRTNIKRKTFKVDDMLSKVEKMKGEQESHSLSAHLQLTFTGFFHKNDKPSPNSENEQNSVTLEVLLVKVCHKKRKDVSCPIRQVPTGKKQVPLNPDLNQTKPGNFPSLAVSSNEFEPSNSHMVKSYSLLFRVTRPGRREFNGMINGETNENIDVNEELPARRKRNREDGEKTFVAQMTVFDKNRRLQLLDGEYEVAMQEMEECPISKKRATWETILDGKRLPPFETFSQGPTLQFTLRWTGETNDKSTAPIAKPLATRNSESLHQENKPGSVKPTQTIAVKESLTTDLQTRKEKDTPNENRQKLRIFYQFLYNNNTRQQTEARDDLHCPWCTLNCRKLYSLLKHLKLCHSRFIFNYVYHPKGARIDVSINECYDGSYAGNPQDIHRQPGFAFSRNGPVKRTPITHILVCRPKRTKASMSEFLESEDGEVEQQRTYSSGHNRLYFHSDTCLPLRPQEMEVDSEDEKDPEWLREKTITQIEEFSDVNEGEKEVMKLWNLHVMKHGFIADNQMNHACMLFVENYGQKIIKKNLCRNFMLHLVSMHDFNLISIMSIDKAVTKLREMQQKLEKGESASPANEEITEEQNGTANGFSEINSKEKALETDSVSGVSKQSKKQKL
# Sequence (Q09028 whole entry partner): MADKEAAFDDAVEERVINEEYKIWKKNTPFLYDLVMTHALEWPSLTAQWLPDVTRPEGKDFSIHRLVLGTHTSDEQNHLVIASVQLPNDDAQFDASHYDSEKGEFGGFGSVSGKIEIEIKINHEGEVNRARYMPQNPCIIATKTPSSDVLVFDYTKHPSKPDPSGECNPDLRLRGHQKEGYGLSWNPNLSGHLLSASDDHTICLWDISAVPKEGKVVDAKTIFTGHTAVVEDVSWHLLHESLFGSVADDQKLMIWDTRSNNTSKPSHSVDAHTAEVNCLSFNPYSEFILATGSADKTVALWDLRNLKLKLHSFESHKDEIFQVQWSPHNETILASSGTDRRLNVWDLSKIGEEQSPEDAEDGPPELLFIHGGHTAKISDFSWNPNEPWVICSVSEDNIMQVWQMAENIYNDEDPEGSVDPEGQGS
# Sequence (Q6ZN18 whole entry partner): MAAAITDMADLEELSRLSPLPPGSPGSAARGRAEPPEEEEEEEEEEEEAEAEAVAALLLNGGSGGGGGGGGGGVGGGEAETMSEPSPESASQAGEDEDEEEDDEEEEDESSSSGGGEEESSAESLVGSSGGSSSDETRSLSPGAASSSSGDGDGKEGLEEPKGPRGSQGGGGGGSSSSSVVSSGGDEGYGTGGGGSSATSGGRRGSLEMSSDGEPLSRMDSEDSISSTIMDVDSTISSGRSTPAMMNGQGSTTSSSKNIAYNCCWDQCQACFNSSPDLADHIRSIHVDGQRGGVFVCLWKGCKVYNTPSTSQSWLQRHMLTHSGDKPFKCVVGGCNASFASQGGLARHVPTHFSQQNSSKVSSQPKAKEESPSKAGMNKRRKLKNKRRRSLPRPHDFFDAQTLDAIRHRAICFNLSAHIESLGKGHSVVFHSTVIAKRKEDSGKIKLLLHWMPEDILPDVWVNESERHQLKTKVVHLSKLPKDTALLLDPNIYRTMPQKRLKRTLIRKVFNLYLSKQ
# procedure text: Radioisotope-based methyltransferase assay (selectivity)

{"molecule": "Cc1c(C(=O)NC(CCC2CC2)C(=O)Nc2ccc(C#N)cc2)[nH]c2c1C(=O)CC(C)(C)C2 (stereo not shown)", "IC50": "> 100 µM"}

* * *

# target desc: PRMT6 (Homo sapiens)
# Sequence (Q96LA8 whole entry): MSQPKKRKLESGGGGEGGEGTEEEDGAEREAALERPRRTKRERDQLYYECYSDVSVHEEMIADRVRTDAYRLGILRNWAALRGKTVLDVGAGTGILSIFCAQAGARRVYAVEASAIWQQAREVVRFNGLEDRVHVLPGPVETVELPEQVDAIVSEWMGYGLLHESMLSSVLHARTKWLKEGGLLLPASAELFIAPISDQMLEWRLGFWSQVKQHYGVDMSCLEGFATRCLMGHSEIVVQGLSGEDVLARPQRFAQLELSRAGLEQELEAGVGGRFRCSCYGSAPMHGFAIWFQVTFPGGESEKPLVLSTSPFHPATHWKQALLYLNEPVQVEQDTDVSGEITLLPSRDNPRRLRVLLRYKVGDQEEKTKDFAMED
# procedure text: Radioisotope-based methyltransferase assay (selectivity)
# measurement parameters: IC50, PRMT6, 1 μM SAM

{"compound": "Nc1ncnc2c1ncn2[C@@H]1O[C@H](CSCC[C@H](N)C(=O)O)[C@@H](O)[C@H]1O [SAH, S-(5'-Adenosyl)-L-homocysteine, reference compound]", "target desc": "PRMT6 (Homo sapiens)", "IC50, nM": 410}
